# Tested on: P12-Ichikawa
# test method notes: cell viability relative to DMSO control; higher = less cytotoxic
# assay context: RPMI 5 mM glucose + 10% dialyzed FBS; 48 h; 0.569 µM
Please provide measured cell viability for the entries that follow.
Note to self: number, then unit, no commentary.

Quick one: cell viability for CCCCc1oc2ccc(NS(C)(=O)=O)cc2c1C(=O)c1ccc(OCCCN(CCCC)CCCC)cc1 ?
104%

// query: O=C1c2cccc(O)c2C(=O)c2c(O)cc(CO)cc21
89%

// query: CC1=C(C)C2=C(S1)[N]3C(=NN=C3[C@H](CC(=O)OC(C)(C)C)/N=C2/C4=CC=C(Cl)C=C4)C
39.9%

// query: Cc1ccc(F)c(NC(=O)Nc2ccc(-c3cccc4[nH]nc(N)c34)cc2)c1
97.2%

// query: COc1ccc(Cn2ccc3ccc(C(=O)NO)cc32)cc1
129%

// query: CCOC(=O)c1ncn2c1CN(C)C(=O)c1cc(F)ccc1-2
116%

// query: C[C@@H]1CN(CC(=O)N2CC(C)(C)c3ncc(Cc4ccc(F)cc4)cc32)[C@@H](CN2CCOC[C@H]2C)CN1
128%

// query: COc1cc(N2CCC(N3CCN(C)CC3)CC2)ccc1Nc1ncnc(Nc2ccccc2[S+](=O)([O-])C(C)C)n1
120%

// query: CC(=O)SCC(Cc1ccccc1)C(=O)NCC(=O)OCc1ccccc1 (centres undefined)
101%

The reported numbers originate from the supplement of paper PMC11451515.
